assay: Pharmacokinetics in SD rats, intravenous injection or intragastric administration; type: in vivo; details: male, Sprague-Dawley, rat, plasma, iv, injection (1 mg/kg), read-out: half-life T1/2 (converted)
Entries and their half-life values follow.
Response body: numeric value in h, unit text excluded.

O=C(O)c1cc(N2CCCOc3ccc(F)cc32)ncc1-c1nc2cc(F)ccc2o1	4.7

Input: Find the recorded half-life belonging to O=C(O)c1cc(N2CCCOc3ccc(F)cc32)ncc1-c1nc2ccccc2o1 and report it.
Output: 8.1

Input: Again, but for COc1ccc2c(c1OCc1ccccc1)C[C@@H](C(=O)O)N(C(=O)C(c1ccccc1)c1ccccc1)C2 [olodanrigan, reference compound]
Output: 1.6

Input: Entry O=C(O)c1cc(N2CCCOc3ccc(F)cc32)ncc1-c1nc2ccc(F)cc2o1 please
Output: 4.5

Input: Field entry: N#Cc1ccc2nc(-c3cnc(N4CCCOc5ccc(F)cc54)cc3C(=O)O)oc2c1
Output: 3.3
